Source: ChEMBL document CHEMBL3784960

protocol_details: Displacement of [3H]AMPA from rat synaptosome AMPA receptor after 30 mins by microplate scintillation counter analysis
quantity_name: IC50

Worked examples, 4 molecules total:
N[C@@H](C[C@@H](CCC(=O)O)C(=O)O)C(=O)O :: > 100 µM
N[C@@H](C[C@]1(C(=O)O)C[C@H]1C(=O)O)C(=O)O :: > 100 µM
N[C@@H](C[C@@]1(C(=O)O)C[C@H]1C(=O)O)C(=O)O :: > 100 µM
N[C@@H](C[C@@]1(C(=O)O)C[C@@H]1C(=O)O)C(=O)O :: > 100 µM

Then there is this molecule:
[in] Which IC50 is listed for N[C@@H](C[C@]1(C(=O)O)C[C@@H]1C(=O)O)C(=O)O ?
[out] > 100 µM
